Where these numbers come from: patent US9464092B2

Assay: Mouse pharmacokinetics (oral gavage / intravenous)
Type: in vivo, mice
Conditions: plasma, iv; mouse, 10 mg/kg i.v.; read-out: Vss
property_measured: Vd (L/kg)

1. CC(C)N1CCN(c2ccc(Nc3ncc4cc5n(c4n3)C3(CCCCC3)CNC5=O)nc2)CC1; 7.5
2. CN1CCN(c2ccc(Nc3ncc4cc5n(c4n3)C3(CCCCC3)CNC5=O)nc2)CC1; 2.7
3. O=C1NCC2(CCCCC2)n2c1cc1cnc(Nc3ccc(N4CCNCC4)cn3)nc12; 5.2
4. O=C1NCC2(CCCCC2)n2c1cc1cnc(Nc3ccc(N4CCC(N5CCOCC5)CC4)cn3)nc12; 3.4

----------
Target: CDK2/CyclinE (Homo sapiens (Human), UniProt P24941)
Assay: CDK2/CyclinE kinase assay (Nanosyn, Caliper microfluidic)
Type: biochemical
Conditions: Table 2
Give 1 (yes) when the value for Fold Selectivity (CDK2/CycE/CDK4) is at least 1000. Give 0 (no) when it is less.

1) CCN(CC)C1CCN(c2ccc(Nc3ncc4cc5n(c4n3)C3(CCCC3)CNC5=O)nc2)CC1 [LLL]; 0 (no)
2) CN(C)C1CCN(c2ccc(Nc3ncc4cc5n(c4n3)C3(CCCCC3)CNC5=O)nn2)CC1 [SS]; 1 (yes)
3) O=C1NCC2(CCCCC2)n2c1cc1cnc(Nc3ccc(N4CCN(CC5CC5)CC4)cn3)nc12 [HH]; 0 (no)
4) CN1CCN(c2ccc(Nc3ncc4cc5n(c4n3)C3(CCCC3)CNC5=O)nc2)CC1 [ZZ]; 0 (no)
5) CC(C)(O)CN1CCN(c2ccc(Nc3ncc4cc5n(c4n3)C3(CCCC3)CNC5=O)nc2)CC1 [EEE]; 1 (yes)
6) CCN(CC)C1CCN(c2ccc(Nc3ncc4cc5n(c4n3)C3(CCCC3)CNC5=O)nc2)C1 (stereo not drawn) [UU]; 0 (no)
7) CC(C)N1CCN(c2ccc(Nc3ncc4cc5n(c4n3)C3(CCCCC3)CNC5=O)nc2)CC1 [Compound GG]; 1 (yes)
8) C[C@@H](O)CN1CCN(c2ccc(Nc3ncc4cc5n(c4n3)C3(CCCC3)CNC5=O)nc2)C[C@@H]1C [VV]; 0 (no)
9) C[C@H](O)CN1CCN(c2ccc(Nc3ncc4cc5n(c4n3)C3(CCCC3)CNC5=O)nc2)C[C@H]1C [XX]; 1 (yes)

----------
Molecular target: CDK2/CyclinA (Homo sapiens (Human))
Experiment: CDK2/CyclinA kinase assay (Nanosyn, Caliper microfluidic)
Type: biochemical
Settings: Table 2; read-out: CDK2/CycA IC50
Method: Selected compounds disclosed herein were tested in CDK4/cyclinD1, CDK6/CycD3 CDK2/CycA and CDK2/cyclinE kinase assays by Nanosyn (Santa Clara, Calif.) to determine their inhibitory effect on these CDKs. The assays were performed using microfluidic kinase detection technology (Caliper Assay Platform). The compounds were tested in 12-point dose-response format in singlicate at Km for ATP. […]
property_measured: log10 IC50 (log10 of the value in nM)

1) CCC(C)CN1CCN(c2ccc(Nc3ncc4cc5n(c4n3)C3(CCCC3)CNC5=O)nc2)CC1 (stereo not drawn) [AAA]; 3.33
2) O=C1NCC2(CCCCC2)n2c1cc1cnc(Nc3ccc(N4CCN(C5CCC5)CC4)cn3)nc12; 2.28
3) CC1CN(c2ccc(Nc3ncc4cc5n(c4n3)C3(CCCCC3)CNC5=O)nc2)CCN1CC(C)(C)O (stereo not drawn); 2.73
4) CC(C)(C)CCN1CCN(c2ccc(Nc3ncc4cc5n(c4n3)C3(CCCC3)CNC5=O)nc2)CC1; 1.94
5) C[C@H]1CN(c2ccc(Nc3ncc4cc5n(c4n3)C3(CCCCC3)CNC5=O)nc2)CCN1; 2.96
6) CN1CCN(c2ccc(Nc3ncc4cc5n(c4n3)C3(CCCCC3)CNC5=O)nc2)CC1(C)C; 3.18
7) C[C@H]1CN(c2ccc(Nc3ncc4cc5n(c4n3)C3(CCCCC3)CNC5=O)nc2)CCN1CCC(C)(C)C; 3.15
8) CCOCCN1CCN(c2ccc(Nc3ncc4cc5n(c4n3)C3(CCCC3)CNC5=O)nc2)CC1; 3.00
9) CCN(CC)C1CCN(C2CCN(c3ccc(Nc4ncc5cc6n(c5n4)C4(CCCCC4)CNC6=O)nc3)CC2)C1 (stereo not drawn); 2.84
10) CCC(C)CN1[C@H](C)CN(c2ccc(Nc3ncc4cc5n(c4n3)C3(CCCC3)CNC5=O)nc2)C[C@@H]1C (stereo partly drawn); 3.45
11) C[C@H]1CN(c2ccc(Nc3ncc4cc5n(c4n3)C3(CCCCC3)CNC5=O)nc2)CCN1C; 3.13
12) CN1CCN(C(=O)c2ccc(Nc3ncc4cc5n(c4n3)C3(CCCC3)CNC5=O)nc2)CC1; 1.93
13) CCN(CC)C1CCN(c2ccc(Nc3ncc4cc5n(c4n3)C3(CCCCC3)CNC5=O)nc2)C1 (stereo not drawn); 3.41
14) O=C1NCC2(CCCCC2)n2c1cc1cnc(Nc3ccc(N4CCC(N5CCOCC5)CC4)cn3)nc12; 2.93
15) C[C@H](O)CN1[C@H](C)CN(c2ccc(Nc3ncc4cc5n(c4n3)C3(CCCCC3)CNC5=O)nc2)C[C@@H]1C; 2.81
